target: activated rat MMP13 (rat, UniProt P23097 99-466); assay: cell-based or functional assay
// reported IC50, rat fluorogenic peptide assay for each item listed

binder	IC50, rat fluorogenic peptide assay
C0101PMP520B06 (VHH, Profile 2 Nanobody) VHH: DVQLVESGGGLVQPGGSLRLSCAASGRTFSSYAMGWFRQAPGKEREFVAAISWGGGSTYYSDSVKGRFTISRDNSKNTVYLQMNSLRPEDTAVYYCTAALGSTGSGSTPVPEYRYWGQGTLVTVSS	7.8 nM
C0101PMP520C04 (VHH, Profile 2 Nanobody) VHH: DVQLVESGGGLVQPGGSLRLSCAASGRTFSSYAMGWFRQAPGKEREFVAAISWSGGSTYYSDSVKGRFTISRDNSKNTVYLQMNSLRPEDTAVYYCTAARGGVAGTDGPLGDYNYWGQGTLVTVSS	5.6 nM
C0101PMP521F02 (VHH, Profile 2 Nanobody) VHH: DVQLVESGGGLVQPGGSLRLSCVASGLTFSSYAMGWFRQAPGKEREFVAAISWSGGRTYYADSVKGRFTISRDNSKNTVYLQMNSLRPEDTAVYYCTAARGPGSVGPSEEYNYWGQGTLVTVSS	2.1 nM
C0101PMP516G08 (VHH, Profile 2 Nanobody; also called C0101516G08) VHH: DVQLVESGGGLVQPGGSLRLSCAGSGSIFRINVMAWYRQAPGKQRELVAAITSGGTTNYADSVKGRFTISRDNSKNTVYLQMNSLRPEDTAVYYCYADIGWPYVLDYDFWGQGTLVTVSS	5.2 nM
